# Tgt: NLRP3 inflammasome (Homo sapiens, UniProt Q96P20)
# Construct: host or cells: THP1-Null cells (PMA-differentiated, LPS-primed, nigericin-stimulated)
# Sequence (Q96P20 whole entry): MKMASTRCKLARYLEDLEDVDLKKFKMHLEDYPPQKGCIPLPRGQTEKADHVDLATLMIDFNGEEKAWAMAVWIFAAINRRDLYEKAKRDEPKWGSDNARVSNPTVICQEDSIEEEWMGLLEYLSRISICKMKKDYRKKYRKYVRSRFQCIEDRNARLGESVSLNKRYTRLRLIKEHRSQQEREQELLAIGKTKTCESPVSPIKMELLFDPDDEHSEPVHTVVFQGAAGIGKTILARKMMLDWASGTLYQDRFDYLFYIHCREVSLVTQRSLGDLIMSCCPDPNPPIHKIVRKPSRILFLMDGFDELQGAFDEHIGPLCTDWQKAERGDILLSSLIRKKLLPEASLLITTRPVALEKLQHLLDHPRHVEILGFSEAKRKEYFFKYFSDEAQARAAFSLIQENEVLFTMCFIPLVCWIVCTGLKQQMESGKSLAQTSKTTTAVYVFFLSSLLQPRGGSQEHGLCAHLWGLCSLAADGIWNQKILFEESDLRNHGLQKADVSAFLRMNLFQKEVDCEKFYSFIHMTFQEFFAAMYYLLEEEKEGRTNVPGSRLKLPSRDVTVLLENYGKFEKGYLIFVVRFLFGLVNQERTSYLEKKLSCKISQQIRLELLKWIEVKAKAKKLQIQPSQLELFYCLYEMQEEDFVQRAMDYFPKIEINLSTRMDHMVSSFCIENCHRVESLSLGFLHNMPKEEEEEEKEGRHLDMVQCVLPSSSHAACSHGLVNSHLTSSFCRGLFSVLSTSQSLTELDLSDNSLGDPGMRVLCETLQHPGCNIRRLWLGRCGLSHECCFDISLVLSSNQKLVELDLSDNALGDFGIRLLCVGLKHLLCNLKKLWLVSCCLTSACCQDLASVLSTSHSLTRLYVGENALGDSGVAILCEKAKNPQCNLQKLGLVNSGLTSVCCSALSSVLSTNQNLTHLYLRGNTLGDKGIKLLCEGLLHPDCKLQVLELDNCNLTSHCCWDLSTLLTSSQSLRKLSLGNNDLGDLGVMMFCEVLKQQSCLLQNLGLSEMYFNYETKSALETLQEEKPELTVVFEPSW
# Protocol Summary: Evaluation of NLRP3 inflammasome inhibitory activity (inhibition of IL-1β production in LPS/Nigericin-stimulated THP1-Null cells, AlphaLISA)
# Format: cell-based
# Condition: IL-1β production in THP1-Null cells; PMA, 1 µg/mL Lipopolysaccharides 3 hours, Nigericin 7.5 µmol/L 1.5 hours; read-out: IC50
Note to self: IC50 under 20 nM means Y, ties and anything higher get N.

| Compound | Tgt | Category |
| --- | --- | --- |
| Cc1cc(C(C)(F)F)cc(C)c1-n1cc2c(=O)[nH]c(C3=CCOCC3)nc2n1 | NLRP3 inflammasome (Homo sapiens, UniProt Q96P20) | Y |
| Cc1ccc(-n2cc3c(=O)[nH]c(C4CCOCC4)nc3n2)c(C)c1 | NLRP3 inflammasome (Homo sapiens, UniProt Q96P20) | N |
| Cc1cc(Br)cc(C)c1-n1cc2c(=O)[nH]c(COCCO)nc2n1 | NLRP3 inflammasome (Homo sapiens, UniProt Q96P20) | N |
| Cc1cc(Br)cc(C)c1-n1cc2c(=O)[nH]c(COC(F)F)nc2n1 | NLRP3 inflammasome (Homo sapiens, UniProt Q96P20) | N |
| Cc1cc(C2CC2(F)F)cc(C)c1-n1cc2c(=O)[nH]c(C3CC3(F)F)nc2n1 (centres unmarked) | NLRP3 inflammasome (Homo sapiens, UniProt Q96P20) | N |
| Cc1cc(C(C)(F)F)cc(C)c1-n1cc2c(=O)[nH]c([C@H]3C[C@@H]3F)nc2n1 (racemic) [Example 142] | NLRP3 inflammasome (Homo sapiens, UniProt Q96P20) | Y |
| Cc1cc(OC(F)F)cc(C)c1-n1cc2c(=O)[nH]c(C3=CCOCC3)nc2n1 | NLRP3 inflammasome (Homo sapiens, UniProt Q96P20) | N |
| COCCc1nc2nn(-c3c(C)cc(C4CC4)cc3C)cc2c(=O)[nH]1 | NLRP3 inflammasome (Homo sapiens, UniProt Q96P20) | N |
| CNC(=O)c1nc2nn(-c3c(C)cc(C(C)(F)F)cc3C)cc2c(=O)[nH]1 | NLRP3 inflammasome (Homo sapiens, UniProt Q96P20) | N |
| Cc1cc(C2CC2)cc(C)c1-n1cc2c(=O)[nH]c(C3CC(F)(F)CO3)nc2n1 (racemic) | NLRP3 inflammasome (Homo sapiens, UniProt Q96P20) | N |
| Cc1cc(Br)cc(C)c1-n1cc2c(=O)[nH]c(C3COC3)nc2n1 | NLRP3 inflammasome (Homo sapiens, UniProt Q96P20) | Y |
| O=c1[nH]c(C2CC2)nc2nn(-c3ccc(C4CC4)cc3C(F)(F)F)cc12 | NLRP3 inflammasome (Homo sapiens, UniProt Q96P20) | Y |
| Cc1c(-n2cc3c(=O)[nH]c(C4CC4)nc3n2)c(C(F)(F)F)nn1C(C)C | NLRP3 inflammasome (Homo sapiens, UniProt Q96P20) | N |
| Cc1ccc(-n2cc3c(=O)[nH]c(C4CC4)nc3n2)c(C)c1 | NLRP3 inflammasome (Homo sapiens, UniProt Q96P20) | N |
| Cc1cc(OC(F)F)cc(C)c1-n1cc2c(=O)[nH]c(C(C)O)nc2n1 (racemic) | NLRP3 inflammasome (Homo sapiens, UniProt Q96P20) | N |
| CCc1nc2nn(-c3c(C)cc(C(C)(F)F)cc3C)cc2c(=O)[nH]1 | NLRP3 inflammasome (Homo sapiens, UniProt Q96P20) | Y |
| Cc1cc(OC(F)F)cc(C)c1-n1cc2c(=O)[nH]c(C3CC3(F)F)nc2n1 (racemic) | NLRP3 inflammasome (Homo sapiens, UniProt Q96P20) | N |
